Tested on: Platelet
Assay: Inhibition of ADP-induced platelet aggregation in rat blood
Type: functional, cell-based
pIC50: −log10 of the molar value.
Measured Metric: pIC50

Solved cases (2 shown):
- Compound: "CC(=O)Oc1ccccc1C(=O)O"
  Measured Target: "Platelet"
  Measured Metric: "pIC50"
  Obs Value: "< 3.00"
- Compound: "Oc1cc2c(cc1O)[C@H](Cc1cccc3ccccc13)NCC2"
  Measured Target: "Platelet"
  Measured Metric: "pIC50"
  Obs Value: 3.57

Readout pIC50 for Oc1ccc(C[C@H]2NCCc3cc(O)c(O)cc32)cc1 [(+)-HIGENAMINE] , test system Platelet, was < 3.00
